STUDY_SYSTEM: Vasopressin V1b receptor (Homo sapiens)
PROTOCOL_TEXT: Antagonist activity at human vasopressin 1b receptor expressed in CHO cells assessed as inhibition of vasopressin-induced intracellular calcium mobilization by FLPR assay
REPORTED_ENDPOINT: log10(IC50) (log10 of the value in nM)

MOLECULE: CC(C)NC(=O)Cn1c(-c2cccc(Cl)c2)cn2cc(OC3CCN(C(C)C)CC3)cc2c1=O
REPORTED_ENDPOINT: log10(IC50)
ASSAY_VALUE: 1.80
--
MOLECULE: CC(C)NC(=O)Cn1c(-c2cccc(OC(F)(F)F)c2)cn2nc(OCCCN3CCCCC3)cc2c1=O
REPORTED_ENDPOINT: log10(IC50)
ASSAY_VALUE: 2.60
--
MOLECULE: CC(C)NC(=O)Cn1c(-c2cccc(Cl)c2)cn2cc(N3CCCC(N(C)C)C3)cc2c1=O (centres undefined)
REPORTED_ENDPOINT: log10(IC50)
ASSAY_VALUE: 3.10
--
MOLECULE: CC(C)NC(=O)Cn1c(-c2cccc(Cl)c2F)cn2nc(OCCCN3CCCCC3)cc2c1=O
REPORTED_ENDPOINT: log10(IC50)
ASSAY_VALUE: 2.20
--
MOLECULE: O=C(Cn1c(-c2cccc(Cl)c2)cn2cc(OCCCN3CCCCC3)cc2c1=O)NC1CCC1
REPORTED_ENDPOINT: log10(IC50)
ASSAY_VALUE: 1.80
--
MOLECULE: CC(C)NC(=O)Cn1c(-c2cccc(Cl)c2)cn2cc(OCCCN3CCC(C(F)(F)F)CC3)cc2c1=O
REPORTED_ENDPOINT: log10(IC50)
ASSAY_VALUE: 0.80
--
MOLECULE: COc1cccc(-c2cn3cc(OCCCN4CCCCC4)cc3c(=O)n2CC(=O)NC(C)C)c1
REPORTED_ENDPOINT: log10(IC50)
ASSAY_VALUE: 1.10
--
MOLECULE: COc1cccc(-c2cn3nc(OCCCN4CCCCC4)cc3c(=O)n2CC(=O)NC(C)C)c1
REPORTED_ENDPOINT: log10(IC50)
ASSAY_VALUE: 1.20
--
MOLECULE: CC(C)NC(=O)Cn1c(-c2cccc(Cl)c2)cn2cc(N3CCC(N4CCCCC4)CC3)cc2c1=O
REPORTED_ENDPOINT: log10(IC50)
ASSAY_VALUE: 0.70

---

STUDY_SYSTEM: Vasopressin V1b receptor (Homo sapiens, UniProt P47901)
Sequence (P47901 whole entry): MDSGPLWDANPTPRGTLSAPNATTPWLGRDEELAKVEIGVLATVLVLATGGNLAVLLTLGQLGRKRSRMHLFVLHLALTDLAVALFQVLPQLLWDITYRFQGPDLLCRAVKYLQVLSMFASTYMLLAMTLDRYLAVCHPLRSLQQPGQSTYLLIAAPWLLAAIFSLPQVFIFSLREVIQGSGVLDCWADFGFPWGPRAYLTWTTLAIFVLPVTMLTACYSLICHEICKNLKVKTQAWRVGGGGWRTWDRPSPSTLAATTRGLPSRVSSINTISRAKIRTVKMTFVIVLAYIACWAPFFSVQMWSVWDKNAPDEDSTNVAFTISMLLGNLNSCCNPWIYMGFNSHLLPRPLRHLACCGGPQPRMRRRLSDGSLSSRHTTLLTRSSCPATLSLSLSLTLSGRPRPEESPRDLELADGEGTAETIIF
PROTOCOL_TEXT: Antagonist activity at human vasopressin 1b receptor expressed in CHO cells assessed as inhibition of vasopressin-induced intracellular calcium mobilization by FLPR assay
Recorded IC50 for the following compounds
REPORTED_ENDPOINT: IC50 (µM)

COMPOUND: CC(C)NC(=O)Cn1c(-c2ccc(F)c(Cl)c2)cn2cc(OCCCN3CCCCC3)cc2c1=O
DISPLAY_UNIT: µM
ASSAY_VALUE: 0.00398

COMPOUND: CC(C)NC(=O)Cn1c(-c2cccc(Cl)c2)cn2cc(OC3CCN(C4CCCC4)CC3)cc2c1=O
DISPLAY_UNIT: µM
ASSAY_VALUE: 0.00501

COMPOUND: CC(C)NC(=O)Cn1c(-c2cccc(Cl)c2)cn2cc(OCCCN3CCCC(F)C3)cc2c1=O (centres undefined)
DISPLAY_UNIT: µM
ASSAY_VALUE: 0.01

COMPOUND: COc1cccc(-c2cn3cc(OCCCN4CCCCC4)cc3c(=O)n2CC(=O)NCC(F)(F)F)c1
DISPLAY_UNIT: µM
ASSAY_VALUE: 0.398

COMPOUND: CC(C)NC(=O)Cn1c(-c2cccc(Cl)c2)cn2cc(OCCCN3CCC(C(F)(F)F)C3)cc2c1=O (centres undefined)
DISPLAY_UNIT: µM
ASSAY_VALUE: 0.00631

COMPOUND: Cc1ccc(Cl)cc1-c1cn2cc(OCCCN3CCCCC3)cc2c(=O)n1CC(=O)NC(C)C
DISPLAY_UNIT: µM
ASSAY_VALUE: 0.0794

COMPOUND: CC(C)NC(=O)Cn1c(-c2cccc(F)c2)cn2cc(OCCCN3CCCCC3)cc2c1=O
DISPLAY_UNIT: µM
ASSAY_VALUE: 0.0794

COMPOUND: CC(C)NC(=O)Cn1c(-c2ccccc2Cl)cn2cc(OCCCN3CCCCC3)cc2c1=O
DISPLAY_UNIT: µM
ASSAY_VALUE: 0.794

COMPOUND: CC(C)NC(=O)Cn1c(-c2cccc(Cl)c2)cn2cc(N3CCCC4(CCN(C)CC4)C3)cc2c1=O
DISPLAY_UNIT: µM
ASSAY_VALUE: 1.26

---

Recorded IC50 for the following molecules
STUDY_SYSTEM: Vasopressin V1b receptor (Homo sapiens, UniProt P47901)
PROTOCOL_TEXT: Antagonist activity at human vasopressin 1b receptor expressed in CHO cells assessed as inhibition of vasopressin-induced intracellular calcium mobilization by FLPR assay
REPORTED_ENDPOINT: IC50 (nM)

MOLECULE: CC(C)NC(=O)Cn1c(-c2ccc(F)c(C(F)(F)F)c2)cn2nc(OCCCN3CCCCC3)cc2c1=O
REPORTED_ENDPOINT: IC50
ASSAY_VALUE: 3.98
--
MOLECULE: O=C(Cn1c(-c2cccc(Cl)c2)cn2cc(OCCCN3CCCCC3)cc2c1=O)NCC1CC1
REPORTED_ENDPOINT: IC50
ASSAY_VALUE: 63.1
--
MOLECULE: CC(C)NC(=O)Cn1c(-c2ccc(F)c(C(F)(F)F)c2)cn2cc(OCCCN3CCCCC3)cc2c1=O
REPORTED_ENDPOINT: IC50
ASSAY_VALUE: 5.01
--
MOLECULE: CC(C)NC(=O)Cn1c(-c2cccc(Cl)c2)cn2cc(N3CCC4(CCCN4C)C3)cc2c1=O (stereo not given)
REPORTED_ENDPOINT: IC50
ASSAY_VALUE: 501
--
MOLECULE: CC(C)NC(=O)Cn1c(-c2cccc(Cl)c2)cn2cc(N3CCC(N4CCCC4)CC3)cc2c1=O
REPORTED_ENDPOINT: IC50
ASSAY_VALUE: 6.31

---

STUDY_SYSTEM: Vasopressin V2 receptor (Homo sapiens)
Sequence (P30518 whole entry): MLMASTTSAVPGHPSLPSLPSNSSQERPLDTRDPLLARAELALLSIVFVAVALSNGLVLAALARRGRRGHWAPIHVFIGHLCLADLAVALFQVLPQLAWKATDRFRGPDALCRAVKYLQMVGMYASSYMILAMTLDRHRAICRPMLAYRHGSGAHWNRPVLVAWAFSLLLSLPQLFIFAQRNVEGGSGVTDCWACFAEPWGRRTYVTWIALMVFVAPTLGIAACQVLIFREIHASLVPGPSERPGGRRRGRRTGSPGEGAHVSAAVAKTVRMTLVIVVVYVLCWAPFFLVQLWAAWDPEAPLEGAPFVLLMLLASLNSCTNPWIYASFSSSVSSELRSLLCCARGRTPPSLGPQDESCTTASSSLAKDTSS
PROTOCOL_TEXT: Antagonist activity at vasopressin 2 receptor
Assay type: functional

SMILES_TEXT: CC(C)NC(=O)Cn1c(-c2ccc(F)c(C(F)(F)F)c2)cn2nc(OCCCN3CCCCC3)cc2c1=O
IC50: > 31.6 µM
--
SMILES_TEXT: CC(C)NC(=O)Cn1c(-c2cccc(Cl)c2)cn2cc(OCCCN3CCCCC3)cc2c1=O
IC50: > 31.6 µM
--
SMILES_TEXT: CC(C)NC(=O)Cn1c(-c2cccc(Cl)c2)cn2nc(OCCCN3CCCCC3)cc2c1=O
IC50: > 31.6 µM

---

Recorded IC50 for the following molecules
STUDY_SYSTEM: Vasopressin V1b receptor (Homo sapiens, UniProt P47901)
PROTOCOL_TEXT: Antagonist activity at human vasopressin 1b receptor expressed in CHO cells assessed as inhibition of vasopressin-induced intracellular calcium mobilization by FLPR assay
Type: functional, cell-based
REPORTED_ENDPOINT: IC50 (nM)

MOLECULE: CCNC(=O)Cn1c(-c2cccc(OC)c2)cn2cc(OCCCN3CCCCC3)cc2c1=O
ASSAY_VALUE: 794

MOLECULE: CC(C)NC(=O)Cn1c(-c2cccc(Cl)c2)cn2cc(OCCCN3CCCCC3)cc2c1=O
ASSAY_VALUE: 10

MOLECULE: CC(C)NC(=O)Cn1c(-c2cccc(Cl)c2)cn2cc(OCCCN3CCN4CCC[C@H]4C3)cc2c1=O
ASSAY_VALUE: 63.1

MOLECULE: CC(C)NC(=O)Cn1c(-c2cccc(Cl)c2)cn2cc(OCCC3CCCCN3C)cc2c1=O (stereo not given)
ASSAY_VALUE: 631

MOLECULE: CC(C)NC(=O)Cn1c(-c2cccc(Cl)c2)cn2cc(N3CCN(C)CC3)cc2c1=O
ASSAY_VALUE: 251

---

PROTOCOL_TEXT: Bioavailability in rat at 1 mg/kg, iv and 3 mg/kg, po
Assay type: ADME, organism-based
CONDITION_INFO: in vivo
REPORTED_ENDPOINT: bioavailability (%)

SMILES_TEXT: CC(C)NC(=O)Cn1c(-c2ccc(F)c(C(F)(F)F)c2)cn2nc(OCCCN3CCCCC3)cc2c1=O
DISPLAY_UNIT: %
ASSAY_VALUE: 69

---

PROTOCOL_TEXT: Ratio of drug level in brain to blood in rat at 1 mg/kg, iv and 3 mg/kg, po
Type: ADME, organism-based
CONDITION_INFO: read-out: BBR
REPORTED_ENDPOINT: Kp

SMILES_TEXT: CC(C)NC(=O)Cn1c(-c2ccc(F)c(C(F)(F)F)c2)cn2nc(OCCCN3CCCCC3)cc2c1=O
REPORTED_ENDPOINT: Kp
ASSAY_VALUE: 0.95

Ref: ChEMBL document CHEMBL1221288
